Each recorded value in this set is attributed to the Human Domainome abundance scans (Beltran et al. 2025).

B1: Homeobox protein cut-like 1, residues 548 to 629; numbered along this chain, P39880 (parent)
chain: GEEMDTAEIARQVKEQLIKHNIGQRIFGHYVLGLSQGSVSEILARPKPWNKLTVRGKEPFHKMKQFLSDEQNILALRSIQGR

# Variants of: B1
# PROTOCOL SUMMARY: abundance fitness (aPCA) (normalised: wild type 0, dead -1); higher = more abundant; growth selection in yeast, the domain comes from the species named
# EXPERIMENTAL CONTEXT: Homo sapiens
Record condition met whenever abundance fitness is at -0.2 or higher; record condition not met when lower.

Task item: Could you please find out whether "I26C" has abundance fitness that meets -0.2 or exceeds it?
Reply: condition met

Task item: Please indicate if the recorded abundance fitness for "R45T" meets or exceeds -0.2.
Reply: condition met

Task item: Hello, I need to know if "G37H" has measured abundance fitness not below -0.2. Thanks!
Reply: condition met

Task item: Confirm if abundance fitness reported for the variant "G81C" is -0.2 or above.
Reply: condition met

Task item: Has "Q16H" a recorded abundance fitness greater than or equal to -0.2?
Reply: condition met

Task item: Check this variant for abundance fitness at or above -0.2: "N72P"
Reply: condition not met

Task item: Tell me whether abundance fitness is at least -0.2 here: "V13Y"
Reply: condition not met

Task item: Reported abundance fitness reaches at least -0.2 for "A7R" ?
Reply: condition met

Task item: Is reported abundance fitness greater than or equal to -0.2 here: "K14N"
Reply: condition met

Task item: Given the entry "L17F" , answer whether its abundance fitness meets or surpasses -0.2.
Reply: condition not met

Task item: Test whether the variant "L32P" records abundance fitness of -0.2 or higher.
Reply: condition not met

Task item: abundance fitness >= -0.2 for "E2D" ?
Reply: condition met

Task item: Can "P46L" be said to have abundance fitness at or above -0.2?
Reply: condition not met

Task item: Does the reported abundance fitness for "V13C" fall at or above the -0.2 mark?
Reply: condition not met

Task item: Reported abundance fitness at or above -0.2? "I22Q"
Reply: condition not met

Task item: API: above_or_equal(metric=abundance fitness, cutoff=-0.2) for item "F66S"
Reply: condition not met

Task item: Can "P59N" be said to have abundance fitness at or above -0.2?
Reply: condition met

Task item: Form field: abundance fitness at least -0.2? Entry: "N72G"
Reply: condition met

Task item: Is it the case that "L43Y" has abundance fitness reaching or exceeding -0.2?
Reply: condition not met

Task item: Kindly determine if abundance fitness recorded for "S40H" is above or exactly -0.2.
Reply: condition met

Task item: Please check the record "I79C" and state if its abundance fitness is at or above -0.2.
Reply: condition met

Task item: Entry "F60E" : is its abundance fitness no less than -0.2?
Reply: condition not met

Task item: Could you verify whether the entry "K19Y" shows abundance fitness of no less than -0.2?
Reply: condition not met

Task item: Dear colleague, could you confirm whether "H61N" has abundance fitness at or above -0.2?
Reply: condition met

Task item: Textbook exercise: given the entry "A75R" , state whether its abundance fitness is greater than or equal to -0.2.
Reply: condition met

Task item: Identify whether the reported abundance fitness of the following variant is -0.2 or greater: "I42F"
Reply: condition not met

Task item: Reported abundance fitness at or above -0.2? "L52N"
Reply: condition not met

Task item: Record "F27A" ; criterion: abundance fitness no lower than -0.2. Met?
Reply: condition not met

Task item: Hi, just wondering whether "R55L" shows abundance fitness of -0.2 or higher.
Reply: condition met

Task item: Reported abundance fitness at or above -0.2? "R77A"
Reply: condition met

Task item: Can "G28S" be said to have abundance fitness at or above -0.2?
Reply: condition met

Task item: Entry "V13S" : is its abundance fitness no less than -0.2?
Reply: condition not met

Task item: Confirm if abundance fitness reported for the variant "S78V" is -0.2 or above.
Reply: condition met

Task item: Form field: abundance fitness at least -0.2? Entry: "F66Y"
Reply: condition not met

Task item: Is abundance fitness at least -0.2? Consider "F27P"
Reply: condition not met

Task item: Hello, I need to know if "K64T" has measured abundance fitness not below -0.2. Thanks!
Reply: condition not met

Task item: API: above_or_equal(metric=abundance fitness, cutoff=-0.2) for item "A44W"
Reply: condition met

Task item: Hi team, for "I18E" , is the recorded abundance fitness at or above -0.2?
Reply: condition met

Task item: Decide: is the reported value of abundance fitness for "K51V" equal to or greater than -0.2?
Reply: condition met

Task item: Answer whether abundance fitness of "H20S" is greater than or equal to -0.2.
Reply: condition not met

Task item: Confirm if abundance fitness reported for the variant "I73N" is -0.2 or above.
Reply: condition not met

Task item: Exam item: decide whether the reported abundance fitness for "I18Q" is at least -0.2.
Reply: condition met

Task item: In plain terms: is recorded abundance fitness at least -0.2 for "Q36L" ?
Reply: condition met

Task item: I'd appreciate it if you could say whether "R82S" has abundance fitness at least equal to -0.2.
Reply: condition met

Task item: Determine whether this variant has abundance fitness no lower than -0.2: "G33W"
Reply: condition not met

Task item: Please indicate if the recorded abundance fitness for "D5L" meets or exceeds -0.2.
Reply: condition not met

Task item: Assess whether reported abundance fitness for "R82W" sits at -0.2 or higher.
Reply: condition met

Task item: Tell me whether abundance fitness is at least -0.2 here: "I73F"
Reply: condition met

Task item: abundance fitness >= -0.2 for "T6F" ?
Reply: condition not met

Task item: Textbook exercise: given the entry "N50A" , state whether its abundance fitness is greater than or equal to -0.2.
Reply: condition met

Task item: Check the entry "G28Q" : does abundance fitness equal or exceed -0.2?
Reply: condition not met

Task item: Kindly determine if abundance fitness recorded for "Y30L" is above or exactly -0.2.
Reply: condition met

Task item: I'd appreciate it if you could say whether "E8V" has abundance fitness at least equal to -0.2.
Reply: condition met

Task item: Please indicate if the recorded abundance fitness for "G56Y" meets or exceeds -0.2.
Reply: condition not met

Task item: Tell me whether abundance fitness is at least -0.2 here: "G28H"
Reply: condition not met

Task item: // inclusive: abundance fitness at least -0.2? input: "G1T"
Reply: condition met

Task item: Please indicate if the recorded abundance fitness for "I79H" meets or exceeds -0.2.
Reply: condition met

Task item: Decide: abundance fitness of "Q36Y" >= -0.2?
Reply: condition met

Task item: Assess whether reported abundance fitness for "Q71T" sits at -0.2 or higher.
Reply: condition met

Task item: hey, is abundance fitness for this one >= -0.2? "I22N"
Reply: condition not met

Task item: Does the reported abundance fitness for "L17H" fall at or above the -0.2 mark?
Reply: condition not met

Task item: I'd appreciate it if you could say whether "E15I" has abundance fitness at least equal to -0.2.
Reply: condition met

Task item: Determine whether measured abundance fitness meets or exceeds -0.2 for "N72T"
Reply: condition met

Task item: Determine whether this variant has abundance fitness no lower than -0.2: "L34V"
Reply: condition met

Task item: Hi, just wondering whether "V54L" shows abundance fitness of -0.2 or higher.
Reply: condition met

Task item: Could you tell me if the measured abundance fitness of "S38R" reaches -0.2 or more?
Reply: condition not met

Task item: Hi team, for "D69F" , is the recorded abundance fitness at or above -0.2?
Reply: condition not met

Task item: Item "I9N" with abundance fitness of -0.2 or above?
Reply: condition not met

Task item: Hi team, for "G56Q" , is the recorded abundance fitness at or above -0.2?
Reply: condition met

Task item: Decide: is the reported value of abundance fitness for "R77N" equal to or greater than -0.2?
Reply: condition met

Task item: Check if abundance fitness >= -0.2 (inclusive). Item: "P59Q"
Reply: condition met

Task item: Exam item: decide whether the reported abundance fitness for "M4A" is at least -0.2.
Reply: condition not met

Task item: Exam item: decide whether the reported abundance fitness for "V31N" is at least -0.2.
Reply: condition not met

Task item: Textbook exercise: given the entry "G23M" , state whether its abundance fitness is greater than or equal to -0.2.
Reply: condition met

Task item: Hi, just wondering whether "G33H" shows abundance fitness of -0.2 or higher.
Reply: condition met

Task item: Form field: abundance fitness at least -0.2? Entry: "L74T"
Reply: condition met

Task item: Does the variant "L76T" have recorded abundance fitness that is -0.2 or more?
Reply: condition not met

Task item: Evaluate "A75W" : abundance fitness at minimum -0.2?
Reply: condition met

Task item: Tell me whether abundance fitness is at least -0.2 here: "G33P"
Reply: condition not met

Task item: // inclusive: abundance fitness at least -0.2? input: "E8C"
Reply: condition not met

Task item: Determine whether measured abundance fitness meets or exceeds -0.2 for "Q80R"
Reply: condition met

Task item: Does the variant "E70I" have recorded abundance fitness that is -0.2 or more?
Reply: condition met

Task item: Item "G81W" with abundance fitness of -0.2 or above?
Reply: condition met

Task item: Is it the case that "K62W" has abundance fitness reaching or exceeding -0.2?
Reply: condition not met

Task item: hey, is abundance fitness for this one >= -0.2? "A7C"
Reply: condition met

Task item: Quick check, abundance fitness >= -0.2? "G1L"
Reply: condition met

Task item: Could you please find out whether "N50P" has abundance fitness that meets -0.2 or exceeds it?
Reply: condition met

Task item: Check this variant for abundance fitness at or above -0.2: "Q80F"
Reply: condition not met
